# protocol-notes: NOVARTIS: Cytotoxicity against human hepatocellular carcinoma cell line (Huh7)
# Format: toxicity, cell-based, Huh-7
# applied-conditions: Huh7 cells (hepatocellular carcinoma cell line)
observable: CC50

CC(C)(C)c1ncccc1OC(=O)C12CC3CC(CC(C3)C1)C2    > 10 µM
CN(CCCNc1ccnc2cc(Cl)ccc12)C(=O)c1cccc(C(F)(F)F)c1    > 2.55 µM

// returns reported CC50 for input "O=C(CSc1ccc2nnc(-c3cccs3)n2n1)Nc1ccc2c(c1)OCCO2" > 100 µM

What CC50 value was documented for this compound, "Cc1ccc(CNC(=O)CCCCCn2c(SCc3cccc([N+](=O)[O-])c3)nc3ccsc3c2=O)cc1" ? > 100 µM

Source: ChEMBL document CHEMBL1156829
